Hey, just so you know, these numbers are from PubChem BioAssay (NCI).

Listed here are compounds together with their documented TGI.
# Tested on: NCI-H460 lung
# assay_remarks: NCI tumour cell line growth inhibition, 48 h

Illustrative cases are given below, each with its answer.
{"compound": "Cc1nc(-c2nc(C)c(C(=O)NN(C)C)s2)sc1C(=O)NN(C)C", "tested_on": "NCI-H460 lung", "TGI": "> 100 µM"}
{"compound": "CC[C@H](C)[C@H](NC(=O)Nc1ccccc1)C(=O)N(C)[C@H](C[C@@H](OC(C)=O)c1nc(C(=O)N[C@@H](Cc2ccccc2)C[C@H](C)C(=O)OC)cs1)C(C)C", "tested_on": "NCI-H460 lung", "TGI": "> 100 µM"}
{"compound": "O=C1[C@@H]2C3SC(c4ccccc43)[C@@H]2C(=O)N1c1ccccc1", "tested_on": "NCI-H460 lung", "TGI": "> 100 µM"}
{"compound": "Cc1ccc(C(CC(=O)C(C)(C)CN2CCCCC2)SCCS(=O)(=O)O)cc1 (centres undefined)", "tested_on": "NCI-H460 lung", "TGI": "> 100 µM"}
{"compound": "O=C(O)CCCSc1nc2ccccc2s1", "tested_on": "NCI-H460 lung", "TGI": "> 100 µM"}
{"compound": "CN1CCCC1=NC#N", "tested_on": "NCI-H460 lung", "TGI": "> 100 µM"}

Readout TGI for Cc1ccsc1C(=O)C(CC(=O)c1cccs1)c1ccsc1 (centres undefined) , test system NCI-H460 lung, was > 100 µM

Readout TGI for C[C@H]1[C@H](C)CC[C@]2(C(=O)O)CC[C@]3(C)C(=CC[C@@H]4[C@@]5(C)CC[C@H](OC(=O)/C=C/c6ccc(O)cc6)C(C)(C)[C@@H]5CC[C@]43C)[C@H]12 , test system NCI-H460 lung, was > 65.9 µM

Readout TGI for O=C(O)C[O][Sb][O]CC(=O)O , test system NCI-H460 lung, was > 100 µM

====

# System: CCRF-CEM leukemia
# assay_remarks: NCI tumour cell line growth inhibition, 48 h
measured_attribute: TGI

Illustrative cases are given below, each with its answer.
{"molecule": "COc1cc2nc(-c3ccccc3F)[nH]c(=O)c2cc1OC", "TGI": "> 100 µM"}
{"molecule": "COc1ccc(C2=Nn3c(nc4sc(-c5ccccc5)cc4c3=O)SC2)cc1", "TGI": "> 100 µM"}
{"molecule": "O=C1CSC(c2ccc(Cl)cc2)N1c1ccc(-c2ccc(-n3c(-c4ccccc4)nc4ccccc4c3=O)cc2)cc1 (centres undefined)", "TGI": "> 100 µM"}
{"molecule": "CC1(Br)C(=O)NC(=O)N(C2CC(N=[N+]=[N-])C(CO)O2)C1N=[N+]=[N-] (centres undefined)", "TGI": "> 100 µM"}
{"molecule": "COc1cc2ccnc(-c3c4ccccc4c(N)c4c(OC)c(OC)ccc34)c2cc1OC", "TGI": "14.2 µM"}

Readout TGI for CC(=O)c1nc2ccccc2n1CC(=O)c1ccc(Cl)cc1 , test system CCRF-CEM leukemia, was > 100 µM

Readout TGI for C=CC(=O)N1CCC([C@@H]2CCNc3c(C(N)=O)c(-c4ccc(Oc5ccccc5)cc4)nn32)CC1 , test system CCRF-CEM leukemia, was > 73.2 µM

Readout TGI for O=C(NCCNCCNCCNC(=O)c1cc(-c2ccccc2)nc2ccccc12)c1cc(-c2ccccc2)nc2ccccc12 , test system CCRF-CEM leukemia, was > 20.5 µM
